meta.source: the RNAGym collection of RNA variant scans (doi:10.1073/pnas.2313332121)

B1: TPR 5TU (parent)
chain: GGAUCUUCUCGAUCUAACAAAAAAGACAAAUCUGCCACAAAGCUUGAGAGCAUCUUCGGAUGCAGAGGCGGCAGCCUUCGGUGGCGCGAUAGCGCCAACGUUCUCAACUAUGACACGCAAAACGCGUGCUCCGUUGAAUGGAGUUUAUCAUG

Variants of: B1
assay method text: polymerase ribozyme fitness, log enrichment relative to wild type (log ratio); higher = more active; in vitro selection for triplet polymerase activity
Fewer inactive variants are shown than the library holds.
Threshold check on polymerase ribozyme fitness (log ratio): at or above -3 gives satisfied, strictly below gives not satisfied.

U6G C27U A49C C79G A89U C93U C132A: not satisfied
A37G U45A C96U: not satisfied
A47C C96U A107U: not satisfied
A40C C85U: satisfied
C18A A21G U33G C36A G84A G141C U144A C149U: not satisfied

API: above_or_equal(metric=polymerase ribozyme fitness (log ratio), cutoff=-3) for item C5U A17C G50A U77A C87G A91C A106U U109G
not satisfied

Also check G58A U102G A121U
satisfied
